Test system: CCRIS mutagenicity, Ames/micronucleus/aberration tests
Assay: CCRIS mutagenicity studies
Settings: Test System: AMES SALMONELLA TYPHIMURIUM; Strain/Indicator: TA100; Metabolic Activation: RAT, LIVER, S-9, AROCLOR 1254; Method: STANDARD PLATE
Activity calls are given as the source filed them. The rule behind the calls is not given here.

smiles structure	measurement target	mutagenic call
CCN(N)CC	CCRIS mutagenicity, Ames/micronucleus/aberration tests	inactive; negative
O=C(OCc1ccc(Cl)cc1Cl)c1cccc2cccnc12	CCRIS mutagenicity, Ames/micronucleus/aberration tests	inactive; negative
Clc1cc2ccccc2c2ccccc12	CCRIS mutagenicity, Ames/micronucleus/aberration tests	inactive; negative

###

Tested on: CCRIS mutagenicity, Ames/micronucleus/aberration tests
Test: CCRIS mutagenicity studies
Settings: Test System: AMES SALMONELLA TYPHIMURIUM; Strain/Indicator: TA1537; Metabolic Activation: RAT, LIVER, S-9, AROCLOR 1254 (10%); Method: PREINCUBATION
The source made the active and inactive calls. The rule behind the calls is not given here.
Possible outcomes: TRUE = active, FALSE = inactive

smiles structure	measurement target	class label
OCC(CBr)(CBr)CBr	CCRIS mutagenicity, Ames/micronucleus/aberration tests	FALSE
COC(C)(C)CC(C)=O	CCRIS mutagenicity, Ames/micronucleus/aberration tests	FALSE
CC(C)Nc1ccccc1	CCRIS mutagenicity, Ames/micronucleus/aberration tests	FALSE
Clc1c(Cl)c(Br)c2c(c1Cl)-c1nc-2nc2[n-]c(nc3nc(nc4[n-]c(n1)c1c(Cl)c(Br)c(Cl)c(Br)c41)-c1c(Cl)c(Cl)c(Br)c(Cl)c1-3)c1c(Br)c(Cl)c(Br)c(Cl)c21.[Cu+2]	CCRIS mutagenicity, Ames/micronucleus/aberration tests	TRUE
CCCCOC(=O)c1ccccc1C(=O)OCCCC	CCRIS mutagenicity, Ames/micronucleus/aberration tests	FALSE
CCCCOC(=O)c1ccccc1C(=O)OC1CCCCC1	CCRIS mutagenicity, Ames/micronucleus/aberration tests	FALSE

###

System: CCRIS mutagenicity, Ames/micronucleus/aberration tests
Assay: CCRIS mutagenicity studies
Details: Test System: AMES SALMONELLA TYPHIMURIUM; Strain/Indicator: TA98; Metabolic Activation: NONE; Method: STANDARD PLATE
Activity calls are given as the source filed them. The rule behind the calls is not given here.
Possible outcomes: true (1) for active, false (0) for inactive

compound	class label
COc1cc(N=Nc2ccccc2)ccc1N=Nc1c(S(=O)(=O)O)cc2ccc(N)cc2c1O	false (0)
COc1cc(-c2oc3cc(O)cc(O)c3c(=O)c2O)ccc1O	false (0)
CC(=O)O[C@@H]1[C@@H](O)[C@H]2O[C@@H]3C=C(C)C(=O)[C@@H](O)[C@]3(CO)[C@]1(C)[C@]21CO1	false (0)
C=CC(=O)OCCCCOC(=O)C=C	false (0)
Clc1ccccn1	false (0)
Nc1ccc(/C=C/c2ccc(N)cc2)cc1	false (0)
Cc1nc2c(c3[nH]c4ccccc4c13)C(=O)C=CC2=O	true (1)
CCCCCC(=O)O[C@]1(C(C)=O)CC[C@H]2[C@@H]3CCC4=CC(=O)CC[C@@H]4[C@H]3CC[C@@]21C	false (0)
CC1Cc2cccc3c2N1C(C)C3.CC1Cc2cccc3c2N1C(C)C3.[Cl-].[Cl-].[Cl-].[Cl-].[Pt+2].[Pt+2] (stereo not given)	false (0)
CN(N=O)C(=O)N[C@@H](C=O)[C@@H](O)[C@H](O)[C@H](O)CO	false (0)
